Each item that follows carries a reported pKi.
assay_target: D(2) dopamine receptor (Homo sapiens, UniProt P14416)
Sequence (P14416 whole entry): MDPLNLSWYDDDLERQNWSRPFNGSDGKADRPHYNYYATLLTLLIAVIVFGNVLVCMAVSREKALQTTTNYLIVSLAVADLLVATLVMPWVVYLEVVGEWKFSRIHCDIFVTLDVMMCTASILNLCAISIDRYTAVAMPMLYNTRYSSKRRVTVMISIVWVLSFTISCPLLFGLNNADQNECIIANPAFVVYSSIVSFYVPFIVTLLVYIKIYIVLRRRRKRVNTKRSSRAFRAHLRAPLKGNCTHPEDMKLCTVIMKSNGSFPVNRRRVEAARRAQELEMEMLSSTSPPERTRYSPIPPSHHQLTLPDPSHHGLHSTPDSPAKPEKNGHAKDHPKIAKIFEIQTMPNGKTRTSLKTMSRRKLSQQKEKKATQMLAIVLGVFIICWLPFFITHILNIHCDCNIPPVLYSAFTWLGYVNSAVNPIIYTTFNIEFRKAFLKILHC
measurement_protocol: Displacement of [3H]U-86170 from human D2-dopamine receptor expressed in CHO K1 cells
Hey, just a heads up that pKi is the negative log base 10 of the concentration in molar.

CCCN(CCC)[C@H]1CCc2ccc3[nH]c(C#N)cc3c2C1 :: 6.05

As a next step, examine the compound that follows.
Query: Identify pKi associated with the compound CCCN(CCCCN1C(=O)CC(C)(C)CC1=O)[C@H]1CCc2ccc3[nH]c(C(N)=O)cc3c2C1
Result: 6.04

* * *

assay_target: D(2) dopamine receptor (Homo sapiens, UniProt P14416)
measurement_protocol: Displacement of [3H]U-86170 from human D2-dopamine receptor expressed in CHO K1 cells
Reported Ki values are given for each entry in this list.

CCCN(CCC)[C@H]1CCc2ccc3[nH]c(C(N)=O)cc3c2C1 :: > 1 µM
CCCN(CCCCN1C(=O)CC(C)(C)CC1=O)[C@H]1CCc2ccc3[nH]c(C#N)cc3c2C1 :: > 0.333 µM

Now look at this entry.
Query: Provide measured Ki value, entry: CCCN(CC1CC1)[C@H]1CCc2ccc3[nH]c(C(N)=O)cc3c2C1
Result: > 1 µM
